# Tested on: OVCAR-3 ovarian
# test.description: NCI tumour cell line growth inhibition, 48 h
TGI of 10 µM or higher: t. Under 10 µM: f.

Has CC1=C(Cl)C=CP(=O)(OC(C)C)C1 (stereo unspecified) a recorded TGI greater than or equal to 10 µM? t

Quick check: does "O=[n+]1c2ccccc2n([O-])c2cc(Cl)ccc21" have TGI greater than or equal to 10 µM? t

Evaluate "O=S1(=O)CS(=O)(=O)OCCO1" : TGI at minimum 10 µM? t

Form field: TGI at least 10 µM? Entry: "CCCNC(=O)c1ccc(Cl)cc1Cl" t

Record C[C@@H]1C2=CC[C@@]3(C)C(CCC3[C@H](C)[C@H]3C[C@@]4(C)O[C@@](c5cccnc5)(O3)OC4(C)C)[C@@H]2C2OC2[C@@]12CCC(=O)O2 (stereo partly specified) ; criterion: TGI no lower than 10 µM. Met? t

Is TGI for "Cc1cc(N2CCCC2)nc(NCc2cc(Nc3ccnc4cc(Cl)ccc34)ccc2F)n1" at or above 10 µM? f

I'd appreciate it if you could say whether CC(=O)C(CN(C)C)C(c1ccccc1)c1c(O)c2ccccc2oc1=O (stereo unspecified) has TGI at least equal to 10 µM. t

Given the entry "NC(N)=Nc1nc2ccc([N+](=O)[O-])cc2[nH]1" , answer whether its TGI meets or surpasses 10 µM. t

Entry Cc1ccc(N=NN(C)C(=O)C(C)N)cc1 (stereo unspecified) : is its TGI no less than 10 µM? t

Can "Cn1c2ccccc2c2c3[nH][nH]c(=O)c3c3c4ccccc4[nH]c3c21" be said to have TGI at or above 10 µM? f

Quick check: does "SCc1ccc(CS)s1" have TGI greater than or equal to 10 µM? t

Can COc1ccc2c(c1)CC1c3c(ccc(OC)c3O)CC2N1C (stereo unspecified) be said to have TGI at or above 10 µM? t

# check: TGI of "COc1cc(-c2n/c(=C\c3c(O)[nH]c4cc(Cl)ccc34)cc3c2=Nc2ccccc2-3)cc(OC)c1OC" is greater than or equal to 10 µM f

Exam item: decide whether the reported TGI for O=C(CC1(O)C(=O)Nc2ccccc21)c1ccc(O)cc1 (stereo unspecified) is at least 10 µM. t

Hello, I need to know if "NC(=O)N/N=C(/Cc1nc2ccc(C(=O)c3ccccc3)cc2[nH]c1=O)C(=O)Nc1ccc(C(F)(F)F)cc1[N+](=O)[O-]" has measured TGI not below 10 µM. Thanks! t

hey, is TGI for this one >= 10 µM? C=C(C)C(O)C(O)C[C@@H](C)C1CC[C@]23C[C@]12CCC1[C@@]2(C)CCC(OC(C)=O)C(C)(C)C2CC(OC2OC(CO)C(O)C(O)C2O)[C@]13C (stereo partly specified) t

Decide: TGI of "O=C(O)CNn1c(SCC(=O)O)nnc(/C=C/c2c(O)ccc3ccccc23)c1=O" >= 10 µM? t

// inclusive: TGI at least 10 µM? input: "CN(C)CCn1c(=O)c2ccc3c4c(nn3CCN(C)C)c3cc([N+](=O)[O-])ccc3n(c1=O)c24" f

Does the reported TGI for Cc1nc2ccc(NC3OC(CO)C(O)C(O)C3O)cc2c(=O)n1-c1ccccc1 (stereo unspecified) fall at or above the 10 µM mark? t

// inclusive: TGI at least 10 µM? input: "O=C(Nc1cc(Cl)cc(Cl)c1)/C(Cc1nc2ccccc2[nH]c1=O)=N/NC(=O)c1ccncc1" t

Does the compound CCOC(=O)[C@H]1Nc2ccc([N+](=O)[O-])cc2C2c3ccccc3CC21 (stereo partly specified) have recorded TGI that is 10 µM or more? t

----------
# System: SNB-19 CNS
# test.description: NCI tumour cell line growth inhibition, 48 h
Consider the following molecules; for each one, report its TGI.

Quick one: TGI of COc1ccc(/C=c2/sc3n(c2=O)NC2(CCC(C)CC2)NN=3)cc1 (stereo unspecified) ? > 100 µM

State the recorded TGI for this entry: COC1C(OC(=O)/C=C/C=C/C=C/C=C\C(=O)O)CCC2(CO2)C1C1(C)OC1CC=C(C)C (stereo unspecified) > 200 µM

Using the record for "CCCNC(=O)c1ccc(Cl)cc1Cl" , report its TGI. > 100 µM

// query TGI value for entry "Cc1ccc(-c2cc(=O)c3cc(C)c(C)c(C(=O)O)c3o2)cc1N" > 100 µM

GET /values?readout=TGI&item= "CCC(=O)Nc1ccccc1C#C/C=C\C#Cc1ccccc1C(F)(F)F" > 50 µM

Query: TGI; subject: "Oc1ccc(CCNCc2cc3c(cc2Br)OCO3)cc1" > 100 µM

Returns the measured TGI for the input molecule. Input: COC(=O)[C@]1(c2cc3ccccc3[nH]2)CC2CN(CC(=O)N(C)OC)C1CC2(OC)OC (stereo partly specified) > 100 µM

Looking for the measured TGI of "C[CH2][Ge]([CH2]C)([CH2]C)[O]C(=O)CCC(=O)[O][Ge]([CH2]C)([CH2]C)[CH2]C" , can you help? > 100 µM

Suppose we examine the molecule "COc1ccc2c(c1)CCCN2S(=O)(=O)c1ccccc1[N+](=O)[O-]" ; what TGI value has been reported? > 100 µM

What measured TGI goes with "N=C(N)c1ccc(NCCOCCNc2ccc(C(=N)N)cc2)cc1" ? > 100 µM

State the recorded TGI for this entry: C=CC(Br)(CBr)CCC(Br)C(C)(C)Cl (stereo unspecified) 4.51 µM

----------
Would you kindly list TGI for each of these molecules?
# System: SK-MEL-28 melanoma
# test.description: NCI tumour cell line growth inhibition, 48 h
Where a SMILES comes first, the peptide text is derived from it.

Look up TGI: CC(C)CC(NC(=O)C(Cc1ccccc1)NC(=O)C(Cc1c[nH]c2ccccc12)NC(=O)CNC(=O)C(N)Cc1ccc(O)cc1)C(=O)O (stereo not given) (H-YGWFL-OH; configuration not given here) > 100 µM

Any idea what its TGI is? The molecule is CC12CO[C@@](C)(CC(S(=O)(=O)c3ccccc3)C1)O2 (stereo not given in full) > 100 µM

Item under review: CC(C)C(C/C=C1/CC(CO)(COC(=O)c2ccccc2)OC1=O)C(C)C (stereo not given) . Reported TGI? 27.8 µM

Data request, read-out TGI, for CC1=CC(C)C(C)N(CCNS(=O)(=O)c2ccc(C)cc2)c2ccccc21 (stereo not given) 17.9 µM

Request the reported TGI associated with "CN(C)C=NCCN1CCOCC1" > 100 µM

Entry COc1cc2c(cc1OC)NC(=O)NC(Cc1ccc3c(c1)OCO3)CC2 (stereo not given) : reported TGI = ? > 100 µM

Query (molecule): "Cc1ccc(NC(=S)SCCC(=O)O)cc1" ; field requested: TGI > 100 µM

Looking for the measured TGI of "O=c1c2cc(Cl)ccc2[nH]c2cc(O)cc(O)c12" , can you help? > 10 µM

Query: TGI; subject: "COc1cc(-c2cc(/C=C/C(=O)c3ccc(Cl)c(Cl)c3)[nH]n2)cc(OC)c1OC" 66 µM

If you can, please state the reported TGI value of "O=C(O)C1(Cc2ccc3c(c2)CCC3)Cc2ccccc2C1" . > 100 µM

----------
# Test system: COLO 205 colon
# test.description: NCI tumour cell line growth inhibition, 48 h; in the data active = GI50 below about 0.43 µM; inactive = the rest
Assign a class; possible classes are T for active, F for inactive

Which outcome was entered for the compound Nc1nc(N)c2c(n1)NC(c1ccccc1)C1CCc3ccccc3C1=N2 (centres undefined) in this test? F

# fetch the recorded call for COc1cc(C2C3=C(COC3=O)Nc3c2ccc2c3CCCC2)cc2c1OCO2 (centres undefined) here T

Could you check what this test reported for "O=C1C(=O)c2ccccc2C(O)=C1CCCc1ccc(C2CCCCCC2)cc1" ? F

Hi team, can someone confirm the assay call for "CCC(=O)Nc1ccccc1C#C/C=C\C#Cc1ccccc1C(F)(F)F" ? F

Which outcome was entered for the compound "CCCCC(=O)N/N=C/c1c(O)ccc2ccccc12" in this test? F

Record request — test call for C=CC/C(=C\COP(=O)(OCc1ccc([N+](=O)[O-])o1)N(C)CCCCCl)CC/C=C(\C)CCC=C(C)C (centres undefined) F

Please state the recorded outcome for this compound: "C/C(=N\NC(=S)N1CC2CCC(CC2)C1)c1cccc(C)n1" T

Could you please tell me the result logged for "Cc1cc2nc3cc(C)c(N)cc3[n+](-c3ccccc3)c2cc1N" in this assay? F

Called result for "CN1CCN(Cc2ccc(NC(=O)c3cncc(C#Cc4cncc5nccnc45)c3)cc2C(F)(F)F)CC1" F

Which result was noted for this compound in the test: "N#Cc1c(N)nc(N)nc1N[C@H](c1nc2c(F)ccc(Cl)c2c(=O)n1-c1cccnc1)C1CC1" F

Hello, I am checking results. What call was entered for Cc1[nH]c(-c2nc3ccccc3[nH]2)c(C)c1C(=O)NC(C)C1CCCCC1 (centres undefined) ? F

How did this test come out for "O=C1Nc2ccccc2/C1=C\c1nc(C2CCN(S(=O)(=O)c3ccc(F)cc3)CC2)n2ccccc12" ? F

Test call for this compound, please: "CCc1cc2ncc(CN3CCN(c4ccc(C(=O)NC)nc4)CC3)cc2[nH]c1=O" F

How did this test come out for COC1C(OC(=O)/C=C/C=C/C=C/C=C\C(=O)O)CCC2(CO2)C1C1(C)OC1CC=C(C)C (centres undefined) ? F
